Exercise: state measured T/C for each of the compounds provided.
- Tested on: L1210 leukemia ip in BDF1 mice, survival T/C
- assay.protocol: NCI In Vivo Anticancer Drug Screen. Data for tumor model L1210 Leukemia (intraperitoneal) in B6D2F1 (BDF1) mice
- experimental.parameters: endpoint: mean survival time; dose: 100.0 mg/kg/injection; schedule: Q01DX001 (ip); vehicle: Klucel (hydroxypropylcellulose) (HPC); higher = longer survival
- Procedure: The antitumor activity of compounds was measured in mice bearing transplantable tumors. Survival or tumor size were measured and the results are expressed as the measurement made in the treated group (T) divided by the measurement made in the vehicle treated control group (C). The tumor model used in this assay is L1210 Leukemia (intraperitoneal) in B6D2F1 (BDF1) mice
Toxic doses and inconclusive results are not listed.

Input line: Reported T/C, compound CCOc1ccc(C(c2ccc(OCC)cc2)C(Cl)(Cl)Cl)cc1 : ____
Output line: 106 % of control

Input line: Dear colleague, I am looking for the recorded T/C of the following compound: CC(C)NC(C)C
Output line: 104 % of control

Input line: Dear colleague, I am looking for the recorded T/C of the following compound: O=Cc1cccc(Oc2cccc(C=O)c2)c1
Output line: 97 % of control

Input line: Fill blank: measured T/C of the compound CCCC(N)C(=O)O (configuration not stated) is ____.
Output line: 106 % of control

Input line: Tell me the measured T/C of CCOC(=O)c1cnc(C)nc1NCc1ccccc1 , please.
Output line: 101 % of control

Input line: Please report the recorded T/C for O=C(O)c1cccc(NC(=O)C(F)(F)F)c1 .
Output line: 94 % of control

Input line: Requested field: T/C. Item: O=C(O)C(CSCc1ccccc1)NSc1ccccc1[N+](=O)[O-] (configuration not stated)
Output line: 105 % of control
